Target: amyloid β protein (Homo sapiens, UniProt P05067)
Construct: the amyloid β protein (purchased from Peptide Laboratory) was dissolved in a potassium phosphate buffer (pH7.4); purchased Peptide Laboratory
Sequence (P05067 672-711 limits assumed): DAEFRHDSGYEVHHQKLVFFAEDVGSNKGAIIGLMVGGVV
Test: β structure recognition of amyloid β protein (thioflavin T fluorescence)
Format: binding
Conditions: test compound 1 μM; thioflavin T 3 μM; average of duplicated experiments
assay-readout: β Structure recognition (%)

>  <compound>
CCN(CC)c1ccc(/N=N/c2ccc(Br)cn2)c(O)c1 [BF-020]

>  <study-system>
amyloid β protein (Homo sapiens, UniProt P05067)

>  <assay-readout>
β Structure recognition (%)

>  <numeric-readout>
84.4

$$$$

(1) O.O.O.O.O.O=C([O-])c1cc(N=Nc2ccc(-c3ccc(N=Nc4ccc(O)c(C(=O)[O-])c4)cc3)cc2)ccc1O.[Na+].[Na+] [Chrysamine G 2Na.5H2O, reference compound]
(2) CCOc1ccc(/N=C/c2ccc(N(C)C)cc2)cc1.Cl [BF-034]
(3) CN(C)c1ccc(/C=N/c2ccc(F)cc2)cc1.Cl [BF-035]
Q. Number of compounds to sort: 3. Sort criterion: β Structure recognition (%), ascending. Submit the labels in the order that the ranking request calls for.
A. 3, 2, 1
(3: 5.6%, 2: 19.7%, 1: 84.5%)

Each recorded value in this set is attributed to patent US20030138374A1.
